All figures here come from patent US10004732B2.

# subject.of.test: mTOR (Homo sapiens)
# assay: Lanthascreen kinase binding assay, assay G
# condition.notes: read-out: Assay G mTOR IC50
pIC50: −log10 of the molar value.
experimental.endpoint: pIC50

Ask: Consider the molecule Cc1ccc(S(=O)(=O)N2CC(CO)C2)cc1-c1cnc(N)c(-n2cncn2)n1 and give its measured pIC50.
Result: < 5.04

Ask: What do you have for Cc1ccc(S(=O)(=O)NC2CC3(CC(O)C3)C2)cc1-c1cnc(N)c(-n2cncn2)n1 (single isomer, unassigned) [Example 70a] ?
Result: 5.70

Ask: What do you have for Cc1ccc(S(=O)(=O)NCC(C)(C)O)cc1-c1cnc(N)c(-n2cc(C)c(C)n2)n1 ?
Result: < 5.00

Ask: What do you have for Cc1cc(-c2nc(-c3cc(S(=O)(=O)NC4CC(F)(F)C4)ccc3C)cnc2N)ccn1 ?
Result: 5.21

Ask: What do you have for Cc1cc(-c2nc(-c3cc(S(=O)(=O)NC[C@@H]4CCNC4)ccc3C)cnc2N)ccn1 ?
Result: < 5.04

Ask: What do you have for Cc1ccc(S(=O)(=O)N[C@H]2CC[C@H](O)CC2)cc1-c1cnc(N)c(-n2cncn2)n1 ?
Result: < 5.04

Ask: What do you have for Cc1ccc(S(=O)(=O)NCC(C)(C)O)cc1-c1cnc(N)c(-c2cnn(C)c2)n1 ?
Result: 5.01

Ask: What do you have for Cc1ccc(S(=O)(=O)NCC2(C)COC2)cc1-c1cnc(N)c(-c2cn(C)nc2C)n1 ?
Result: 5.21

Ask: What do you have for CCN(CC)CCCNS(=O)(=O)c1ccc(C)c(-c2cnc(N)c(-c3ccnc(C)c3)n2)c1 ?
Result: < 5.04

Ask: What do you have for Cc1cc(-c2nc(-c3cc(S(=O)(=O)N4CC5(CNC5)C4)ccc3C)cnc2N)ccn1 ?
Result: < 5.04

Ask: What do you have for Cc1ccc(S(=O)(=O)NC2CC(F)(F)C2)cc1-c1cnc(N)c(-n2cncn2)n1 ?
Result: 5.82

Ask: What do you have for Cc1ccc(S(=O)(=O)NCCC(C)(C)O)cc1-c1cnc(N)c(-n2cncn2)n1 ?
Result: < 5.04

Ask: What do you have for Cc1ccc(S(=O)(=O)NCCC(C)(C)O)cc1-c1cnc(N)c(-c2ccc(CO)s2)n1 ?
Result: 5.41

Ask: What do you have for Cc1cc(-c2nc(-c3cc(S(=O)(=O)NCC(C)(C)CN(C)C)ccc3C)cnc2N)ccn1 ?
Result: < 5.04

Ask: What do you have for Cc1cc(-c2nc(-c3cc(S(=O)(=O)NC4CCN(C(C)C)CC4)ccc3C)cnc2N)ccn1 ?
Result: < 5.04

Ask: What do you have for Cc1ccc(S(=O)(=O)NCCC(C)(C)O)cc1-c1cnc(N)c(-c2cn[nH]c2)n1 ?
Result: < 5.04

---

# subject.of.test: Vps34 (Homo sapiens, UniProt Q8NEB9)
# Sequence (Q8NEB9 whole entry, species assumed): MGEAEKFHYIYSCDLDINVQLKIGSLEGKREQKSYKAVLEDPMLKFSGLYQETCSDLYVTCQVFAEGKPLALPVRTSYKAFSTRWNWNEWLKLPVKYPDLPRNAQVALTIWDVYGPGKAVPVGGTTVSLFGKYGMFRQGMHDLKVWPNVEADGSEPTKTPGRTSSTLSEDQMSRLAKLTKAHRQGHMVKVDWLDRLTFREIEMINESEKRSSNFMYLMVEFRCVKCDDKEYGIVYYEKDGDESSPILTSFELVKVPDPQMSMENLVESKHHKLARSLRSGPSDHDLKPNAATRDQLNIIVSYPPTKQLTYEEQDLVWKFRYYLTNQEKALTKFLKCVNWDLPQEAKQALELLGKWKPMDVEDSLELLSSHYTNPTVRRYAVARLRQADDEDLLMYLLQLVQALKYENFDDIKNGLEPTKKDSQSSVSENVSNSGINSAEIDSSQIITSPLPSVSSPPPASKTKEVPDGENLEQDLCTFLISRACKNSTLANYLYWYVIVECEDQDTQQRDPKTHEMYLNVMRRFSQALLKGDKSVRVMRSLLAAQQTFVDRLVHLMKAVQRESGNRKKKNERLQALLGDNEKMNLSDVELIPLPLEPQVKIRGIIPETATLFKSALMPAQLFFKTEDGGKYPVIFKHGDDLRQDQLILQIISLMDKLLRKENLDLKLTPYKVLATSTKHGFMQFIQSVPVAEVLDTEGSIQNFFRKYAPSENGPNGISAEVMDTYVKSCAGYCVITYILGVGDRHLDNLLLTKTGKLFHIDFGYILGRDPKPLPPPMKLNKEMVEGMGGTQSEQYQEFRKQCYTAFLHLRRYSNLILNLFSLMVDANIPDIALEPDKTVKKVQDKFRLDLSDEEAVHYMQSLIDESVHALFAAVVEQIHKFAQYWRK
# assay: Kinase Glo Luminescent Kinase Assay (Kglo), assay C
# Type: biochemical
# condition.notes: read-out: Assay C VPS34 IC50
experimental.endpoint: IC50

Ask: Consider the compound Cc1cc(F)c(S(=O)(=O)NCCCO)cc1-c1cnc(N)c(-c2cnn(C)c2)n1 [Example 114] and give its measured IC50.
Result: 7.83 µM

Ask: What do you have for Cc1ccc(S(=O)(=O)N[C@H]2CC[C@H](O)CC2)cc1-c1cnc(N)c(-c2ccncc2)n1 [Example 11] ?
Result: > 9.1 µM

Ask: What do you have for Cc1cc(-c2nc(-c3cc(S(=O)(=O)NC[C@H]4CCC[C@@H](CN)C4)ccc3C)cnc2N)ccn1 [Example 129.42] ?
Result: > 9.1 µM

Ask: What do you have for Cc1ccc(S(=O)(=O)NOCC(C)(C)O)cc1-c1cnc(N)c(-n2cncn2)n1 [Example 31] ?
Result: > 9.55 µM

Ask: What do you have for CCCc1noc(-c2nc(-c3cc(S(=O)(=O)N[C@H]4CC[C@H](O)CC4)ccc3C)cnc2N)n1 [Example 140] ?
Result: > 9.1 µM
